Hey, just so you know, these numbers are from ChEMBL document CHEMBL4007472.

molecular target: Disintegrin and metalloproteinase domain-containing protein 17 (Mus musculus, UniProt Q9Z0F8); assay: Inhibition of TACE in mouse RAW264.7 cells assessed as inhibition of LPS-stimulated TNFalpha production pretreated for 1 hr followed by LPS stimulation for 4 hrs by ELISA; assay type: cell-based; settings: read-out: IC50
Sequence (Q9Z0F8 whole entry, the tested form may be a part): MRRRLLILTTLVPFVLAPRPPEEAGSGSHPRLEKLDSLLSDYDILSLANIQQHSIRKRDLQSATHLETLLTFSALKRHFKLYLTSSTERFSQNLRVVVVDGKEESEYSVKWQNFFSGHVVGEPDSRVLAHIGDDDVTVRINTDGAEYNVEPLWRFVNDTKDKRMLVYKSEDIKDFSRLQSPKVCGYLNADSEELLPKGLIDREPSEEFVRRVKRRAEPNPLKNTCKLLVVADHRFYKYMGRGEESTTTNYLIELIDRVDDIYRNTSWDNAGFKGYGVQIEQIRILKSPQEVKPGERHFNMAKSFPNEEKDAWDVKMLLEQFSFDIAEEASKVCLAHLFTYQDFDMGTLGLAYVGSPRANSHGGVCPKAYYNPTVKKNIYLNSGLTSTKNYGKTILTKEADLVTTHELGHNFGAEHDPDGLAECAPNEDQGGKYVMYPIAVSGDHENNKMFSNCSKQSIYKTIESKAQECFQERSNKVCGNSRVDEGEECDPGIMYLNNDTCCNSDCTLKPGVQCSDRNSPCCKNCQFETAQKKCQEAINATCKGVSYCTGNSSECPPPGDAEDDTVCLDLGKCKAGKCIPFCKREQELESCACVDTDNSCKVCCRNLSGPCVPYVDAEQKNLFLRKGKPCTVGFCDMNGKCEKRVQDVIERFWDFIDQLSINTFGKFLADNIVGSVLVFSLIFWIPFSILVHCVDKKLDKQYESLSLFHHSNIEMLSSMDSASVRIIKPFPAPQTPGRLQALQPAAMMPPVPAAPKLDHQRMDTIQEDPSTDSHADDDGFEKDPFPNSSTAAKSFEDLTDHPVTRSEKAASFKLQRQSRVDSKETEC
measurement_label: log10 IC50 (log10 of the value in nM)
Plainly stated, the numbers are log10 of IC50 given in nM.

                                   molecule  recorded_measurement
0  Cc1cc(COc2ccc(S(=O)(=O)N(C)[C@@H]3CC=CC[C@@H]3C(=O)NO)cc2)c2ccccc2n1 (relative stereo)                  3.00
1  Cc1cc(COc2ccc(S(=O)(=O)NC3CCN(CCO)CC3C(=O)NO)cc2)c2ccccc2n1 (centres undefined)                  2.26
2  Cc1cc(COc2ccc(S(=O)(=O)N[C@@H]3CCC[C@]3(C)C(=O)NO)cc2)c2ccccc2n1                  2.43
3  Cc1cc(COc2ccc(S(=O)(=O)N[C@@H]3[C@H]4CC[C@H](C4)[C@@H]3C(=O)NO)cc2)c2ccccc2n1                  1.26
4  CC[C@]1(C(=O)NO)CCC[C@H]1N(C)S(=O)(=O)c1ccc(OCc2cc(C)nc3ccccc23)cc1                  3.00

Inquiry: Reported log10 IC50 for `Cc1cc(COc2ccc(S(=O)(=O)N[C@@H]3CCN(C=O)C[C@]3(O)C(=O)NO)cc2)c2ccccc2n1` : what is it?
Reply text: 2.20

Inquiry: Would you mind doing Cc1cc(COc2ccc(S(=O)(=O)N[C@@H]3CNC[C@@H]3C(=O)NO)cc2)c2ccccc2n1 (relative stereo) as well?
Reply text: 1.95

Inquiry: Now the molecule `Cc1cc(COc2ccc(S(=O)(=O)N[C@@H]3CCN(S(=O)(=O)C(C)C)C[C@]3(C)C(=O)NO)cc2)c2ccccc2n1`
Reply text: 2.88

Inquiry: Then this molecule: Cc1cc(COc2ccc(S(=O)(=O)N[C@@H]3CCOC[C@@H]3C(=O)NO)cc2)c2ccccc2n1 (relative stereo)
Reply text: 1.23

Inquiry: Let us now turn to CC(=O)N1CCC(C(=O)NO)C(NS(=O)(=O)c2ccc(OCc3cc(C)nc4ccccc34)cc2)C1 (centres undefined)
Reply text: 2.31

Inquiry: Input `Cc1cc(COc2ccc(S(=O)(=O)N[C@@H]3CCC[C@]3(O)C(=O)NO)cc2)c2ccccc2n1`
Reply text: 1.91

Inquiry: Also, Cc1cc(COc2ccc(S(=O)(=O)N[C@H]3CCN(C(=O)NC(C)(C)C)C[C@H]3C(=O)NO)cc2)c2ccccc2n1 (relative stereo) please.
Reply text: 1.48

Inquiry: Also need `Cc1cc(COc2ccc(S(=O)(=O)N[C@@H]3CCC[C@]3(F)C(=O)NO)cc2)c2ccccc2n1` , thanks.
Reply text: 1.28
